# System: LOX IMVI
# assay-overview: NCI one-dose screening, melanoma LOX IMVI
# Format: cell-based, human
# test-context: 10 μM
Label condition met when Growth Percent LOX IMVI is strictly below 70%; otherwise label condition not met.

1) O=C1c2ccccc2C(=O)c2c1cc(Sc1ccc(Cl)cc1)c1nsnc21 condition not met
2) O=C1c2ccccc2C(=O)c2c1cc(Sc1ccc(F)cc1F)c1nsnc21 condition met
3) O=C1c2ccccc2C(=O)c2c1cc(N1CCSCC1)c1nsnc21 condition met
4) O=C1c2ccccc2C(=O)c2c1cc(Nc1ccc(Cl)cc1F)c1nsnc21 condition met
5) Cc1cccc(C)c1Sc1cc2c(c3nsnc13)C(=O)c1ccccc1C2=O condition met
6) CCOc1cccc(Sc2cc3c(c4nsnc24)C(=O)c2ccccc2C3=O)c1 condition not met
7) O=C1c2ccccc2C(=O)c2c1cc(SCc1ccc(Cl)cc1)c1nsnc21 condition not met
8) O=C1c2ccccc2C(=O)c2c1ccc1nsnc21 condition met
9) O=C1c2ccccc2C(=O)c2c1cc(N1CCOCC1)c1nsnc21 condition met
10) O=C1c2ccccc2C(=O)c2c1cc(Cl)c1nsnc21 condition met
11) CCSc1cc2c(c3nsnc13)C(=O)c1ccccc1C2=O condition met
12) O=C1c2ccccc2C(=O)c2c1cc(Sc1ccccc1)c1nsnc21 condition met
13) COc1ccc(Sc2cc3c(c4nsnc24)C(=O)c2ccccc2C3=O)cc1 condition not met
14) Cc1ccccc1Nc1cc2c(c3nsnc13)C(=O)c1ccccc1C2=O condition met
15) Cc1ccc(Sc2cc3c(c4nsnc24)C(=O)c2ccccc2C3=O)c(C)c1 condition not met

Source: patent US8877748B2
